The entries below come with measured PPAR Activation as % of positive control (Avandia) values attached.
Target: Ga14-DBD-PPAR gamma-LBD fusion protein (Homo sapiens)
Construct: expressed in transfected cells; host or cells: mouse embryonic fibroblasts (MEFs) or ME3 cells
Test: PPAR gamma transactivation assay (Gal4-PPAR gamma LBD / UASx4-TK-luc reporter)
Assay type: cell-based
Settings: Experiment 1, 1 microM

Known PPAR Activation as % of positive control (Avandia) results, listed for orientation:
CCCCC/C=C\CC1CC1/C=C/C(O)C/C=C\CCCC(=O)OC (centres unmarked) [Compound E]    11 +/− 1 % of positive control (Avandia)
CCCCC/C=C\CC1CC1C(O)/C=C\C/C=C\CCCC(=O)OC (centres unmarked) [PBT-4, reference compound]    13 +/− 3 % of positive control (Avandia)
CCCCC/C=C\CC1CC1/C=C/C(O)C/C=C\CCCC(=O)OC (centres unmarked) [PBT-1, reference compound]    57 +/− 6 % of positive control (Avandia)

[Q] Given CCCCC/C=C\CC1CC1C(O)/C=C\C/C=C\CCCC(=O)OC (centres unmarked) [Compound D] , state its recorded PPAR Activation as % of positive control (Avandia).
[A] 17 +/− 3 % of positive control (Avandia)

[Q] Given CCCCC/C=C\CC1CC1C(O)/C=C\C/C=C\CCCC(=O)OC (centres unmarked) [Compound C] , state its recorded PPAR Activation as % of positive control (Avandia).
[A] 16 +/− 3 % of positive control (Avandia)

---

Target: Ga14-DBD-PPAR gamma-LBD fusion protein (Homo sapiens, UniProt P37231)
Construct: expressed in transfected cells; host or cells: mouse embryonic fibroblasts (MEFs) or ME3 cells
Sequence (P37231 238-503 limits assumed): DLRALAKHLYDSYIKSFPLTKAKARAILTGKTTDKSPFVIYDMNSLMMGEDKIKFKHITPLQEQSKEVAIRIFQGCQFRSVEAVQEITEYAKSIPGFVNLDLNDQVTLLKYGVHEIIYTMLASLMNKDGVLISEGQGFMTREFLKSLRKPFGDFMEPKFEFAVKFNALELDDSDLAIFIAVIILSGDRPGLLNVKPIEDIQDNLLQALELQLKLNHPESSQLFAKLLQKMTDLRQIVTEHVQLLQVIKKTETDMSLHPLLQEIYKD
Experiment: PPAR gamma transactivation assay (Gal4-PPAR gamma LBD / UASx4-TK-luc reporter)
Type: cell-based
Conditions: Experiment 1, 10 microM
The entries below come with measured PPAR Activation as % of positive control (Avandia) values attached.

CCCCC/C=C\C[C@@H]1C[C@H]1/C=C/[C@@H](O)C/C=C\CCCC(=O)OC [Compound F]    92 +/− 7 % of positive control (Avandia)

Field: next molecule
[Q] Given CCCCC/C=C\CC1CC1C(O)/C=C\C/C=C\CCCC(=O)OC (stereo not drawn) [PBT-3, reference compound] , state its recorded PPAR Activation as % of positive control (Avandia).
[A] 42 +/− 8 % of positive control (Avandia)

---

Target: Ga14-DBD-PPAR gamma-LBD fusion protein (Homo sapiens)
Construct: expressed in transfected cells; host or cells: mouse embryonic fibroblasts (MEFs) or ME3 cells
Sequence (P37231 238-503 limits assumed): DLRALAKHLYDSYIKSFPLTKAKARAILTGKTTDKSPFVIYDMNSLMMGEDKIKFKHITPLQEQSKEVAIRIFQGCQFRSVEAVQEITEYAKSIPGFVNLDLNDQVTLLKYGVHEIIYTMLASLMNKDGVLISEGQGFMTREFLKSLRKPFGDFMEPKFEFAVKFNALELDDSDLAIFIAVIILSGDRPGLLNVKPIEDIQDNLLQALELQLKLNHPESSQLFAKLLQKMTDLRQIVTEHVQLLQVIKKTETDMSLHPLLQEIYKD
Test: PPAR gamma transactivation assay (Gal4-PPAR gamma LBD / UASx4-TK-luc reporter)
Format: cell-based
Conditions: Experiment 2, 10 microM
PROPERTY: PPAR Activation as % of positive control (Avandia)

Known PPAR Activation as % of positive control (Avandia) results, listed for orientation:
CCCCC/C=C\C[C@H]1C[C@@H]1[C@H](O)/C=C\C/C=C\CCCC(=O)OC [Compound A]    34 +/− 1 % of positive control (Avandia)
CCCCC/C=C\CC1CC1C(O)/C=C\C/C=C\CCCC(=O)OC (centres unmarked) [PBT-3, reference compound]    41 +/− 5 % of positive control (Avandia)
CCCCC/C=C\CC1CC1C(O)/C=C\C/C=C\CCCC(=O)OC (centres unmarked) [Compound D]    18 +/− 1 % of positive control (Avandia)

[Q] Given CCCCC/C=C\CC1CC1/C=C/C(O)C/C=C\CCCC(=O)OC (centres unmarked) [Compound E] , state its recorded PPAR Activation as % of positive control (Avandia).
[A] 14 +/− 2 % of positive control (Avandia)

[Q] Given CCCCC/C=C\CC1CC1C(O)/C=C\C/C=C\CCCC(=O)OC (centres unmarked) [Compound C] , state its recorded PPAR Activation as % of positive control (Avandia).
[A] 14 +/− 1 % of positive control (Avandia)

[Q] Given CCCCC/C=C\CC1CC1C(O)/C=C\C/C=C\CCCC(=O)OC (centres unmarked) [PBT-4, reference compound] , state its recorded PPAR Activation as % of positive control (Avandia).
[A] 32 +/− 1 % of positive control (Avandia)

---

Target: Ga14-DBD-PPAR gamma-LBD fusion protein (Homo sapiens, UniProt P37231)
Construct: expressed in transfected cells; host or cells: mouse embryonic fibroblasts (MEFs) or ME3 cells
Sequence (P37231 238-503 limits assumed): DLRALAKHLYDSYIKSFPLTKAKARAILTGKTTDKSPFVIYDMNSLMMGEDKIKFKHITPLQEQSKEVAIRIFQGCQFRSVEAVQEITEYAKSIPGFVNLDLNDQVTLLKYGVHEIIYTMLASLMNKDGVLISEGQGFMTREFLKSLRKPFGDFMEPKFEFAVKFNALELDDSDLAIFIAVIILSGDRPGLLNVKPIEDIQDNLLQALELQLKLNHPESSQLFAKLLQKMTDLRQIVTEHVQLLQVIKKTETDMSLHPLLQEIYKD
Test: PPAR gamma transactivation assay (Gal4-PPAR gamma LBD / UASx4-TK-luc reporter)
Format: cell-based
Details: Experiment 3, 10 microM
Description: The UASx4-TK-luc reporter construct (where UAS refers to “upstream activator sequence”) contains four Ga14-responsive elements. The plasmid Ga14-PPAR gammaLBD encodes a Ga14-DBD-PPAR gamma-LBD fusion protein (i.e. the DNA-binding domain, DBD, of Ga14 fused to the ligand-binding domain, LBD, of PPAR gamma) capable of transactivating the UASx4-TK-luc reporter plasmid by binding to the UAS. […]
PROPERTY: PPAR Activation as % of positive control (Avandia)

CCCCC/C=C\CC1CC1C(O)/C=C\C/C=C\CCCC(=O)OC (stereo not drawn) [PBT-3, reference compound]    32 +/− 4 % of positive control (Avandia)
CCCCC/C=C\CC1CC1C(O)/C=C\C/C=C\CCCC(=O)OC (stereo not drawn) [PBT-4, reference compound]    33 +/− 8 % of positive control (Avandia)
CCCCC/C=C\CC1CC1C(O)/C=C\C/C=C\CCCC(=O)OC (stereo not drawn) [Compound C]    17 +/− 3 % of positive control (Avandia)
CCCCC/C=C\CC1CC1/C=C/C(O)C/C=C\CCCC(=O)OC (stereo not drawn) [Compound E]    27 +/− 7 % of positive control (Avandia)
CCCCC/C=C\CC1CC1C(O)/C=C\C/C=C\CCCC(=O)OC (stereo not drawn) [Compound D]    33 +/− 7 % of positive control (Avandia)

Field: next compound
[Q] Given CCCCC/C=C\C[C@H]1C[C@@H]1[C@H](O)/C=C\C/C=C\CCCC(=O)OC [Compound A] , state its recorded PPAR Activation as % of positive control (Avandia).
[A] 27 +/− 5 % of positive control (Avandia)

---

Target: Ga14-DBD-PPAR gamma-LBD fusion protein (Homo sapiens)
Construct: expressed in transfected cells; host or cells: mouse embryonic fibroblasts (MEFs) or ME3 cells
Test: PPAR gamma transactivation assay (Gal4-PPAR gamma LBD / UASx4-TK-luc reporter)
Type: cell-based
Settings: Experiment 3, 0.1 microM
From the text: The UASx4-TK-luc reporter construct (where UAS refers to “upstream activator sequence”) contains four Ga14-responsive elements. The plasmid Ga14-PPAR gammaLBD encodes a Ga14-DBD-PPAR gamma-LBD fusion protein (i.e. the DNA-binding domain, DBD, of Ga14 fused to the ligand-binding domain, LBD, of PPAR gamma) capable of transactivating the UASx4-TK-luc reporter plasmid by binding to the UAS. […]
PROPERTY: PPAR Activation as % of positive control (Avandia)

Known PPAR Activation as % of positive control (Avandia) results, listed for orientation:
CCCCC/C=C\C[C@H]1C[C@@H]1[C@H](O)/C=C\C/C=C\CCCC(=O)OC [Compound A]    8 +/− 2 % of positive control (Avandia)
CCCCC/C=C\CC1CC1C(O)/C=C\C/C=C\CCCC(=O)OC (stereo not drawn) [Compound C]    9 +/− 3 % of positive control (Avandia)

[Q] Given CCCCC/C=C\CC1CC1C(O)/C=C\C/C=C\CCCC(=O)OC (stereo not drawn) [Compound D] , state its recorded PPAR Activation as % of positive control (Avandia).
[A] 7 +/− 2 % of positive control (Avandia)

[Q] Given CCCCC/C=C\CC1CC1C(O)/C=C\C/C=C\CCCC(=O)OC (stereo not drawn) [PBT-3, reference compound] , state its recorded PPAR Activation as % of positive control (Avandia).
[A] 8 +/− 2 % of positive control (Avandia)

[Q] Given CCCCC/C=C\CC1CC1/C=C/C(O)C/C=C\CCCC(=O)OC (stereo not drawn) [Compound E] , state its recorded PPAR Activation as % of positive control (Avandia).
[A] 7 +/− 3 % of positive control (Avandia)

[Q] Given CCCCC/C=C\CC1CC1C(O)/C=C\C/C=C\CCCC(=O)OC (stereo not drawn) [PBT-4, reference compound] , state its recorded PPAR Activation as % of positive control (Avandia).
[A] 7 +/− 1 % of positive control (Avandia)

[Q] Given CCCCC/C=C\CC1CC1C(O)/C=C\C/C=C\CCCC(=O)OC (stereo not drawn) [Compound B] , state its recorded PPAR Activation as % of positive control (Avandia).
[A] 10 +/− 3 % of positive control (Avandia)

[Q] Given CCCCC/C=C\CC1CC1/C=C/C(O)C/C=C\CCCC(=O)OC (stereo not drawn) [PBT-1, reference compound] , state its recorded PPAR Activation as % of positive control (Avandia).
[A] 6 +/− 2 % of positive control (Avandia)

[Q] Given CCCCC/C=C\C[C@@H]1C[C@H]1/C=C/[C@@H](O)C/C=C\CCCC(=O)OC [Compound F] , state its recorded PPAR Activation as % of positive control (Avandia).
[A] 8 +/− 2 % of positive control (Avandia)

// provenance: patent US8710252B2
